Source listed as the supplement of paper PMC5844555.

- System: MYT1L
- experiment: 3' UTR reporter interaction score (median-centred robust z-score of log2 firefly/Renilla activity); higher = less repression of the 3' UTR reporter
- reported conditions: HEK293T; 48 h
Label y when 3' UTR reporter interaction score is at or above -0.07; otherwise label n.

- AGGUUGACAUACGUUUCCC: y
- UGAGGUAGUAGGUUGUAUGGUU: y
- AGUAUUCUGUACCAGGGAAGGU: n
- AUCAACAGACAUUAAUUGGGCGC: y
- GUGCCGCCAUCUUUUGAGUGU: n
- AAACCUGUGUUGUUCAAGAGUC: n
- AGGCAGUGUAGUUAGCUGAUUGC: y
- UUCAAGUAAUUCAGGAUAGGUU: y
- AUAAUACAUGGUUAACCUCUUU: y
- AUCCUUGCUAUCUGGGUGCUA: y
- UACAGUACUGUGAUAACUGAAG: y
- UAGUGCAAUAUUGCUUAUAGGGUUU: y
- UAGUAGACCGUAUAGCGUACG: y
- UAUGUGCCUUUGGACUACAUCG: n
- UGGUUUACCGUCCCACAUACAU: y
- UUUGGCAAUGGUAGAACUCACA: y
- AGUAUGUUCUUCCAGGACAGAAC: n
- UGCUUCCUUUCAGAGGGU: y
- UAUGGCACUGGUAGAAUUCACUG: y
- AGCUACAUUGUCUGCUGGGUUUC: n
- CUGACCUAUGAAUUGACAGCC: y
- UAGAUAAAAUAUUGGUACCUG: n
- UAAAGCUAGAUAACCGAAAGU: n
- ACAAAGUGCUUCCCUUUAGAGUGU: n
- AGUGUGGCUUUCUUAGAGC: n
- AAAGUGCUUCCUUUUAGAGGC: n
- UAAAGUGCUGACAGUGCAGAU: n
- GCUGCGCUUGGAUUUCGUCCCC: y
- UUCACCACCUUCUCCACCCAGC: y
- UCACAAUGCUGACACUCAAACUGCUGAC: y
- GAUGAGCUCAUUGUAAUAUG: y
- AUUACAUGGCCAAUCUC: n
- UGAGGUAGGAGGUUGUAUAGU: n
- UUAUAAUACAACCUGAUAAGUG: n
- AGGAAGCCCUGGAGGGGCUGGAGGU: y
- UAAACGUGGAUGUACUUGCUUU: n
- AUUCUAAUUUCUCCACGUCUUUG: y
- UGAUUGUCCAAACGCAAUUCU: n
- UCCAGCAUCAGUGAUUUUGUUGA: n
- CAUCCCUUGCAUGGUGGAGGGU: n
- CAAAGUGCUUACAGUGCAGGUAGU: n
- CAAAAAUCUCAAUUACUUUUGC: y
- GAAGUGUGCCGUGGUGUGUCU: n
- UACCCUGUAGAACCGAAUUUGU: n
- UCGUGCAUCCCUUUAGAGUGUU: n
- UCUUUGGUUAUCUAGCUGUAUGA: n
- AAUCAUACACGGUUGACCUAUU: y
- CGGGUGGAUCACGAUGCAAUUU: y
- AUCAUGAUGGGCUCCUCGGUGU: y
- ACCCUAUCAAUAUUGUCUCUGC: n
- CUGGACUUGGAGUCAGAAGGCC: y
- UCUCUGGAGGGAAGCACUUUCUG: n
- CUGGCCCUCUCUGCCCUUCCGU: y
- UUGGUCCCCUUCAACCAGCUA: y
- CAAAGAAUUCUCCUUUUGGGCUU: y
- AAGUGCUUCCUUUUAGAGGGUU: y
- AAAGUAGCUGUACCAUUUGC: y
- UUUUGCACCUUUUGGAGUGAA: n
- AAAGUGCAUCCUUUUAGAGUGUUAC: n
- UCCAGCUCCUAUAUGAUGCCUUU: n
- AUGUAUGUGUGCAUGUGCAUG: n
- CUCUAGAGGGAAGCACUUUCUCU: y
- AGAGGCUGGCCGUGAUGAAUUC: n
- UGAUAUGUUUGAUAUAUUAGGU: y
